src = ChEMBL document CHEMBL1145339

Biological target: Extracellular calcium-sensing receptor (Rattus norvegicus) (UniProt P48442)
Sequence (P48442 whole entry): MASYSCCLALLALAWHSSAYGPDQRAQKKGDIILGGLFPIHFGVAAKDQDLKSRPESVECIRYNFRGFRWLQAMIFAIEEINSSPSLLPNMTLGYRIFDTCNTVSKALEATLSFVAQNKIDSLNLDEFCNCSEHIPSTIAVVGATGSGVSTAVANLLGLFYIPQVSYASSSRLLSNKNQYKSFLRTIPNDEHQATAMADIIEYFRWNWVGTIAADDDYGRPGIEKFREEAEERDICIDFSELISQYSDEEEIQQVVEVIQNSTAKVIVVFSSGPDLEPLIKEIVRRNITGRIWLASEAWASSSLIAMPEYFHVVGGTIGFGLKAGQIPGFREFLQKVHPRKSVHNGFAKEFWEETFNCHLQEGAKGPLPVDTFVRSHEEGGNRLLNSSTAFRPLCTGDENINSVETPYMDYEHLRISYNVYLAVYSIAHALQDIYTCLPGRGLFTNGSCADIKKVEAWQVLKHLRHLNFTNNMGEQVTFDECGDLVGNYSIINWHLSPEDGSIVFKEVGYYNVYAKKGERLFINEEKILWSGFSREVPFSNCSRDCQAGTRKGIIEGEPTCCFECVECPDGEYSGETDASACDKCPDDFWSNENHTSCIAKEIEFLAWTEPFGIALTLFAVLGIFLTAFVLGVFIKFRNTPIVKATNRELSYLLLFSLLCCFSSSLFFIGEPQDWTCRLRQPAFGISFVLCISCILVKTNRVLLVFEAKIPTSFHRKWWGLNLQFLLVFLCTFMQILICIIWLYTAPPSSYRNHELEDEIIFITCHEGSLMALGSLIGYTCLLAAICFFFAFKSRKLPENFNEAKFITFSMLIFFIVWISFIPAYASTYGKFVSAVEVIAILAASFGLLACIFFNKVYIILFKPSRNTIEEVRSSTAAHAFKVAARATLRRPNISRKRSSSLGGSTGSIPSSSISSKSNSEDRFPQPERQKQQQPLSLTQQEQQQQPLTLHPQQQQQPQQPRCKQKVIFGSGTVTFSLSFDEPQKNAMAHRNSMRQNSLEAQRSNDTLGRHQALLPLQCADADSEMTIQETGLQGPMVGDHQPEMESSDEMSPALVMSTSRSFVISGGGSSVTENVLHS
Test: Activity at rat CaSR in CHO cells assessed as inhibition of calcium ion-induced [3H]inositol phosphate accumulation at 10 uM
Assay type: functional, cell-based
experimental_readout: inhibition

Sample answers from the record:
INSERT INTO assay_data (compound, reported) VALUES
  ('CC(N[C@@H]1CCCC[C@H]1NC(=O)c1ccccc1Cl)c1cccc2ccccc12 (relative stereo)', '68%'),
  ('CC(N[C@@H]1CCCC[C@H]1NS(=O)(=O)c1cccc(C(F)(F)F)c1)c1cccc2ccccc12 (relative stereo)', '44%'),
  ('CC(C)(Cc1ccc2ccccc2c1)NC[C@@H](O)COc1cccc(Cl)c1C#N', '87%'),
  ('CC(N[C@@H]1CCCC[C@H]1NS(=O)(=O)c1ccc(OC(F)(F)F)cc1)c1cccc2ccccc12 (relative stereo)', '78%'),
  ('C[C@@H](N[C@@H]1CCCC[C@H]1NC(=O)c1ccc(OC(F)(F)F)cc1)c1cccc2ccccc12', '95%');

IN: # lookup: inhibition of `C[C@H](N[C@@H]1CCCC[C@H]1NC(=O)c1ccc(OC(F)(F)F)cc1)c1cccc2ccccc12`
OUT: 22%

IN: For CC(N[C@@H]1CCCC[C@H]1NS(=O)(=O)c1ccc([N+](=O)[O-])cc1)c1ccc2ccccc2c1 (relative stereo) , what is its reported inhibition?
OUT: 20%

IN: Would you mind telling me what inhibition value was observed for CC(N[C@@H]1CCCC[C@H]1NS(=O)(=O)c1cccc(Cl)c1)c1cccc2ccccc12 (relative stereo) ?
OUT: 60%

IN: // inhibition lookup, key: `C[C@H](N[C@H]1CCCC[C@@H]1NS(=O)(=O)c1ccc(OC(F)(F)F)cc1)c1cccc2ccccc12`
OUT: 20%

IN: Item COc1ccc(S(=O)(=O)N[C@@H]2CCCC[C@H]2NC(C)c2cccc3ccccc23)cc1 (some centres undefined) has what recorded inhibition?
OUT: 62%

IN: What inhibition value was documented for this compound, `C[C@@H](N[C@H]1CCCC[C@@H]1NS(=O)(=O)c1ccc(OC(F)(F)F)cc1)c1cccc2ccccc12` ?
OUT: 90%

IN: Would you kindly share the measured inhibition for CC(N[C@@H]1CCCC[C@H]1NC(=O)Oc1ccccc1)c1cccc2ccccc12 (relative stereo) ?
OUT: 1%
